# Treated (cfu/mL) values compiled below
System: Escherichia coli
Assay: suspension quantitative bactericidal test (2.1.1.7.4, Disinfection Technical Specifications 2002 edition), 30 min
Format: cell-based
Conditions: Table 3, 0.0015625% aqueous solution, Escherichia coli

Solved entries:
[Cl][Mn][Cl] [MnCl2, reference compound]	2.3 × 10^7 cfu/mL
[Cl][Fe]([Cl])[Cl] [FeCl3, reference compound]	4.3 × 10^7 cfu/mL
CCCCCCCCSCCC(=O)OCC[N+](C)(C)CCC[N+](C)(C)CCOC(=O)CCSCCCCCCCC	86 cfu/mL
O=[N+]([O-])[O-].[Ag+] [AgNO3, reference compound]	2.2 × 10^7 cfu/mL

API: the following record is the query input.
response.value for [Cl][Cu][Cl] [CuCl2, reference compound] (field: Treated (cfu/mL)) = 3.2 × 10^7 cfu/mL
